system-name: Human AMPK α2ß2γ1 (Homo sapiens, UniProt O43741+P54646)
Construct: The full length cDNAs of human AMPK ß2 (NM_005399.3) and human AMPK α2 (NM_006252.3); The full length cDNAs of human AMPK ß2 (NM_005399.3); 6xHis (N); made in house; host or cells: Escherichia coli BL21 CodonPlus (DE3)-RIL
Sequence (P54646 whole entry): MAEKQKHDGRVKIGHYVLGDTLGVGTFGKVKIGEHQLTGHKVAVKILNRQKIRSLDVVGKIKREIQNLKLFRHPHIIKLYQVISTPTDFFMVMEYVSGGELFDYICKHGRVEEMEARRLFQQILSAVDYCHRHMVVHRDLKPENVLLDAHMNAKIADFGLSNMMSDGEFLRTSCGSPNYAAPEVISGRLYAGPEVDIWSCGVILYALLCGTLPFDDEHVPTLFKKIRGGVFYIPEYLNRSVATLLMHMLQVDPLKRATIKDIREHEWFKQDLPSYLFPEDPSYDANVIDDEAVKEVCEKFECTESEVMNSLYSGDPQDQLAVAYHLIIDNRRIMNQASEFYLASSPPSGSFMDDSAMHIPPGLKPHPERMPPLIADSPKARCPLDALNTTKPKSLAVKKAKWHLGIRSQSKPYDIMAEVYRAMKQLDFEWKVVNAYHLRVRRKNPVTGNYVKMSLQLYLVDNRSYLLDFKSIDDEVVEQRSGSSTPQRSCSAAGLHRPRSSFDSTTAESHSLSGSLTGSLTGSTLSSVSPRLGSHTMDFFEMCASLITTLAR
Sequence (O43741 whole entry): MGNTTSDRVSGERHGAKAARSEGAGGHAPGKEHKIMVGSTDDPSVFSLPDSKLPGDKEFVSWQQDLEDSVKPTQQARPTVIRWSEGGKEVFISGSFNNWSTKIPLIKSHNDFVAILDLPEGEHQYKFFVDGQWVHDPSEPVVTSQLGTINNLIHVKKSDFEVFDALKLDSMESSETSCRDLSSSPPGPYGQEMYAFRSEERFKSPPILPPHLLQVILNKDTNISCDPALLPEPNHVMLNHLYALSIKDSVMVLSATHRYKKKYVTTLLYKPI
Sequence (P54619 whole entry partner): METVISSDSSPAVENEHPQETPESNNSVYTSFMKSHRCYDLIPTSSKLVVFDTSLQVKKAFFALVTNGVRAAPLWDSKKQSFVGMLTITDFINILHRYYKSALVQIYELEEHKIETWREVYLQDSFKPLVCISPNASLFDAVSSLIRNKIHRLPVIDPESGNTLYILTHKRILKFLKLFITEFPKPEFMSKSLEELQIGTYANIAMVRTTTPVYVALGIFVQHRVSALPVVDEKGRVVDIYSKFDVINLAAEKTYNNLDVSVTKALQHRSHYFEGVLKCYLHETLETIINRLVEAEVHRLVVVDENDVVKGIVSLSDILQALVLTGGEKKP
measurement-protocol: Test Example 2: evaluation of an activator for AMP-activated protein kinase (AMPK), LabChip mobility shift assay with CaMKK2-phosphorylated enzyme
Assay type: biochemical
settings: relative to control (100%)
property-measured: Emax (maximum rate of increase in activity within the measurement range) (%)

INSERT INTO results (compound, quantitative_readout) VALUES
  ('O=C1CCCN1CCOc1cc(F)c2c(c1)CCC2Nc1nc2nc(O[C@@H]3CO[C@H]4[C@@H]3OC[C@H]4O)[nH]c2cc1Cl (some centres unmarked) [Compound I-1-98]', 434),
  ('O=C1CCCN1CCOc1cc(F)c2c(c1)CCC2Nc1nc2nc(O[C@@H]3CO[C@H]4[C@@H]3OC[C@H]4O)[nH]c2cc1Cl (some centres unmarked) [Compound I-1-79]', 385),
  ('O[C@@H]1CO[C@H]2[C@@H]1OC[C@H]2Oc1nc2nc(NC3CCc4cc(OCCF)cc(F)c43)c(Cl)cc2[nH]1 (some centres unmarked)', 707),
  ('COc1ccc(-c2cc(F)c3c(c2)CCC3Nc2nc3nc(O[C@@H]4CO[C@H]5[C@@H]4OC[C@H]5O)[nH]c3cc2Cl)cn1 (some centres unmarked) [Compound I-2-26]', 669),
  ('COc1ccc(-c2cc(F)c3c(c2)CCC3Nc2nc3nc(O[C@@H]4CO[C@H]5[C@@H]4OC[C@H]5O)[nH]c3cc2Cl)cn1 (some centres unmarked) [Compound I-1-86]', 379);

====

system-name: Human AMPK α2ß2γ1 (Homo sapiens, UniProt O43741+P54646)
Construct: The full length cDNAs of human AMPK ß2 (NM_005399.3) and human AMPK α2 (NM_006252.3); The full length cDNAs of human AMPK ß2 (NM_005399.3); 6xHis (N); made in house; host or cells: Escherichia coli BL21 CodonPlus (DE3)-RIL
measurement-protocol: Test Example 2: evaluation of an activator for AMP-activated protein kinase (AMPK), LabChip mobility shift assay with CaMKK2-phosphorylated enzyme
Assay type: biochemical
settings: relative to control (100%), read-out: Emax (maximum rate of increase in activity within the measurement range)
Experimental: The full length cDNAs of human AMPK ß2 (NM_005399.3) and human AMPK α2 (NM_006252.3) were inserted into the MCS1 and MCS2 of the pETDuet-1 vector to prepare a human AMPK ß2 and human AMPK α2 (6× His tag at the 5′ terminus) expressing plasmid. […] A conversion rate was calculated from the peak heights of the obtained substrate and product. […]
property-measured: Emax (%)

INSERT INTO assay_data (molecule, measurement_units, quantitative_readout) VALUES
  ('O[C@@H]1CO[C@H]2[C@@H]1OC[C@H]2Oc1nc2nc(NC3CCc4cc(OC5COC5)cc(F)c43)c(Cl)cc2[nH]1 (stereo partly drawn) [Compound I-2-51]', '%', 688),
  ('Cn1cc(-c2cc(F)c3c(c2)CCC3Nc2nc3nc(O[C@@H]4CO[C@H]5[C@@H]4OC[C@H]5O)[nH]c3cc2Cl)cn1 (stereo partly drawn) [Compound I-1-44]', '%', 422),
  ('CC(=O)Nc1cc(F)c2c(c1)CCC2Nc1nc2nc(O[C@@H]3CO[C@H]4[C@@H]3OC[C@H]4O)[nH]c2cc1Cl (stereo partly drawn) [Compound I-1-45]', '%', 435),
  ('Cn1cc(-c2cc(F)c3c(c2)CCC3Nc2nc3nc(O[C@@H]4CO[C@H](CO)C4)[nH]c3cc2Cl)cn1 (single isomer, unassigned) [Compound I-1-29]', '%', 426),
  ('O[C@@H]1CO[C@H]2[C@@H]1OC[C@H]2Oc1nc2nc(NC3CCc4cc(C5=CCOCC5)cnc43)c(Cl)cc2[nH]1 (stereo partly drawn) [Compound I-1-48]', '%', 393),
  ('COCCCOc1cc(F)c2c(c1)CCC2Nc1nc2nc(O[C@@H]3CO[C@H]4[C@@H]3OC[C@H]4O)[nH]c2cc1Cl (stereo partly drawn) [Compound I-2-52]', '%', 629);

====

system-name: Human AMPK α2ß2γ1 (Homo sapiens, UniProt O43741+P54646)
Construct: The full length cDNAs of human AMPK ß2 (NM_005399.3) and human AMPK α2 (NM_006252.3); The full length cDNAs of human AMPK ß2 (NM_005399.3); 6xHis (N); made in house; host or cells: Escherichia coli BL21 CodonPlus (DE3)-RIL
measurement-protocol: Test Example 2: evaluation of an activator for AMP-activated protein kinase (AMPK), LabChip mobility shift assay with CaMKK2-phosphorylated enzyme
Type: biochemical
settings: FL-Peptide 7 substrate, 25° C., 2 hours
Classification field: enter MET for EC150 (compound concentration showing 150% relative to the control (100%)) values not below 2 nM, NOT MET for values below it.

INSERT INTO results (molecule, group_label) VALUES
  ('N#CCn1cc(-c2cc(F)c3c(c2)CC[C@@H]3Nc2nc3nc(O[C@@H]4CO[C@H]5[C@@H]4OC[C@H]5O)[nH]c3cc2Cl)cn1', 'MET'),
  ('O[C@@H]1CO[C@H]2[C@@H]1OC[C@H]2Oc1nc2nc(N[C@H]3CCc4cc(-c5cnn(C6COC6)c5)cc(F)c43)c(Cl)cc2[nH]1', 'NOT MET'),
  ('O[C@@H]1CO[C@H]2[C@@H]1OC[C@H]2Oc1nc2nc(NC3CCc4cc(-c5ccoc5)cc(F)c43)c(Cl)cc2[nH]1 (some centres unmarked)', 'MET'),
  ('CC(C)(O)Cn1cc(-c2cc(F)c3c(c2)CC[C@@H]3Nc2nc3nc(O[C@@H]4CO[C@H]5[C@@H]4OC[C@H]5O)[nH]c3cc2Cl)cn1', 'NOT MET');

====

Quick reference for Emax among some molecules
system-name: Human AMPK α2ß2γ1 (Homo sapiens, UniProt O43741+P54646)
Construct: The full length cDNAs of human AMPK ß2 (NM_005399.3) and human AMPK α2 (NM_006252.3); The full length cDNAs of human AMPK ß2 (NM_005399.3); 6xHis (N); made in house; host or cells: Escherichia coli BL21 CodonPlus (DE3)-RIL
measurement-protocol: Test Example 2: evaluation of an activator for AMP-activated protein kinase (AMPK), LabChip mobility shift assay with CaMKK2-phosphorylated enzyme
Format: biochemical
settings: relative to control (100%), read-out: Emax (maximum rate of increase in activity within the measurement range)
property-measured: Emax (%)

INSERT INTO assay_data (molecule, measurement_units, quantitative_readout) VALUES
  ('COCC(=O)Nc1cc(F)c2c(c1)CCC2Nc1nc2nc(O[C@@H]3CO[C@H]4[C@@H]3OC[C@H]4O)[nH]c2cc1Cl (stereo partly drawn)', '%', 434),
  ('COCCOc1cc(F)c2c(c1)CCC2Nc1nc2nc(O[C@@H]3CO[C@H](CO)C3)[nH]c2cc1Cl (stereo partly drawn)', '%', 423),
  ('COc1ncc(-c2cc(F)c3c(c2)CC[C@@H]3Nc2nc3nc(O[C@@H]4CO[C@H]5[C@@H]4OC[C@H]5O)[nH]c3cc2Cl)cn1', '%', 681);

====

Quick reference for EC150 (compound concentration showing 150% relative to the control (100%)) among some compounds
system-name: Human AMPK α2ß2γ1 (Homo sapiens, UniProt O43741+P54646)
Construct: The full length cDNAs of human AMPK ß2 (NM_005399.3) and human AMPK α2 (NM_006252.3); The full length cDNAs of human AMPK ß2 (NM_005399.3); 6xHis (N); made in house; host or cells: Escherichia coli BL21 CodonPlus (DE3)-RIL
measurement-protocol: Test Example 2: evaluation of an activator for AMP-activated protein kinase (AMPK), LabChip mobility shift assay with CaMKK2-phosphorylated enzyme
Type: biochemical
settings: FL-Peptide 7 substrate, 25° C., 2 hours
property-measured: EC150 (compound concentration showing 150% relative to the control (100%))

INSERT INTO measurements (compound, result) VALUES
  ('O[C@@H]1CO[C@H]2[C@@H]1OC[C@H]2Oc1nc2nc(N[C@H]3CCc4cc(-c5cncnc5)cc(F)c43)c(Cl)cc2[nH]1 [Compound I-2-61]', '3.1 nM'),
  ('COCCOc1cnc2c(c1)CCC2Nc1nc2nc(O[C@@H]3CO[C@H]4[C@@H]3OC[C@H]4O)[nH]c2cc1Cl (stereo partly drawn) [Compound I-1-11]', '9.8 nM'),
  ('Cn1ccc(-c2cc(F)c3c(c2)CCC3Nc2nc3nc(O[C@@H]4CO[C@H]5[C@@H]4OC[C@H]5O)[nH]c3cc2Cl)cc1=O (stereo partly drawn) [Compound I-1-39]', '2.9 nM'),
  ('Cn1cc(-c2cnc3c(c2)CCC3Oc2nc3nc(O[C@@H]4CO[C@H]5[C@@H]4OC[C@H]5O)[nH]c3cc2Cl)cn1 (stereo partly drawn) [Compound I-1-15]', '10 nM'),
  ('O[C@@H]1CO[C@H]2[C@@H]1OC[C@H]2Oc1nc2nc(NC3CCc4cc(OCCOCC(F)(F)F)cc(F)c43)c(Cl)cc2[nH]1 (stereo partly drawn) [Compound I-2-05]', '6 nM'),
  ('O[C@@H]1CO[C@H]2[C@@H]1OC[C@H]2Oc1nc2nc(N[C@H]3CCc4cc(O[C@H]5CC[C@@H](O)CC5)cc(F)c43)c(Cl)cc2[nH]1 [Compound I-2-01]', '1.8 nM');
